target: low-Km cAMP phosphodiesterase; construct: gene Pde3b; not purified, mixture of isoenzymes; experiment: [3H]cAMP hydrolysis, paper chromatography; assay type: biochemical, Rattus norvegicus; conditions: 0.25 µM cAMP, 100 mM Tris-HCl pH 7.5, 4 mM MgCl2, 30 °C, 5 min; crude fraction; read-out: I50
pIC50: −log10 of the molar value.
QUANTITY_NAME: pIC50

{"columns": ["MOLECULE", "NUMBER"],
 "data": [
  ["Cn1c(=O)c2[nH]cnc2n(C)c1=O", 3.46]
]}

====

target: low-Km cAMP phosphodiesterase; construct: gene Pde3b; not purified, mixture of isoenzymes; experiment: [3H]cAMP hydrolysis, paper chromatography; type: biochemical, Rattus norvegicus; settings: 0.25 µM cAMP, 100 mM Tris-HCl pH 7.5, 4 mM MgCl2, 30 °C, 5 min; crude fraction; competitive; read-out: I50
pIC50: −log10 of the molar value.

{"columns": ["MOLECULE", "SYSTEM_UNDER_TEST", "pIC50"],
 "data": [
  ["CN(C)N=Nc1[nH]cnc1C(N)=O", "low-Km cAMP phosphodiesterase", 3.10]
]}
